Reference source: patent US7589123B2

Tested on: α-smooth muscle actin (α-SMA) mRNA
procedure.text: Anti-remodelling activity in human lung fibroblasts (HFL1): TGFβ-induced α-SMA mRNA (Assay 4)
Format: cell-based
study.conditions: Homo sapiens; 3 μM; HFL1 cells, TGFβ 10 ng/ml, 24 h; read-out: Inhibition of α-SMA mRNA synthesis (%)
measurement.name: inhibition at 3 µM

* COc1cc(CCC(=O)CC(=O)c2ccccc2C)ccc1O [Compound 84] | 6%
* COc1cc(CCC(=O)C(C)C(=O)C(C)(C)C)ccc1O (centres unmarked) [Compound 4] | -3%
* COc1cc(CCC(=O)CC(=O)c2ccccc2-c2ccccc2)ccc1O [Compound 19] | 57%
* COc1cc(CCC(=O)CC(=O)c2ccc(C#N)cc2)ccc1O [Compound 82] | -3%
* CCC(C(=O)CCc1ccc(O)c(OC)c1)C(=O)c1ccccc1 (centres unmarked) [Compound 12] | 9%
